The entries below come with measured IC50 values attached.
target: T1, recombinant biotinylated human PAR2 extracellular domain (residues 1-75), N-terminal AviTag, C-terminal Flag … (human, UniProt P55085 26-75, biotin on the AviTag (enzymatic biotinylation)); assay: HTRF competition with Dylight650-Par0067 IgG, pH 7.4, IgG
T1 construct: also called Bio-human-PAR2 ECD; human PAR2 ECD; not shown: N-terminal AviTag (Avidity LLC); C-terminal Flag and poly Histidine tags
T1 sequence (P55085 26-75): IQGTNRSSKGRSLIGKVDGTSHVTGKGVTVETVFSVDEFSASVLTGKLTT
// note: answer is a bare numeric in nM

Inquiry: Any idea what IC50 was measured for PaB670148 IgG (antibody, V domains shown, IgG1-TM (L234F, L235E, P331S), human lambda light chain) VH: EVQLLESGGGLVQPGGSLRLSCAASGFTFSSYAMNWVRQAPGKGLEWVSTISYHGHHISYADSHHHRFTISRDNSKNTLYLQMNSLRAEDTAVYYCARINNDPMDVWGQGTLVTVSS VL: SIELTQPPSVSVSPGQTASITCSGDNLGKKYVQWYQQKPGQSPVLVIYDDSNRPSGIPERFSGSNSGNTATLTISGTQAMDEADYYCHTWHHHPTHGEHNVFGGGTKLTVL ?
Reply text: 48.5

Inquiry: Okay, and PaB670157 IgG (antibody, V domains shown, IgG1-TM (L234F, L235E, P331S), human lambda light chain) VH: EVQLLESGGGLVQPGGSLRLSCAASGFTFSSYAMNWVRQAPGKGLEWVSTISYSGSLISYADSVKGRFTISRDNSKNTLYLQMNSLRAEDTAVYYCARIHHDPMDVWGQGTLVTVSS VL: SIELTQPPSVSVSPGQTASITCSGDNLGKKYVQWYQQKPGQSPVLVIYDDSNRPSGIPERFSGSNSGNTATLTISGTQAMDEADYYCQTWDGHHHTGETNHFGGGTKLTVL ?
Reply text: 15.8

Inquiry: Would you kindly repeat that for PaB670048 IgG (antibody, V domains shown, IgG1-TM (L234F, L235E, P331S), human lambda light chain; also called ZZ1KX4-E11) VH: EVQLLESGGGLVQPGGSLRLSCAASGFTFSSYAMNWVRQAPGKGLEWVSTISYSGSLISYADSVKGRFTISRDNSKNTLYLQMNSLRAEDTAVYYCARIHHDPMDHWGQGTLVTVSS VL: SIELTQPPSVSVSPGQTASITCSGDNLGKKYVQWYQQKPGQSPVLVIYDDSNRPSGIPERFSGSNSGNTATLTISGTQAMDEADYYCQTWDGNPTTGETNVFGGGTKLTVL ?
Reply text: 5.7

Inquiry: Also check PaB670160 IgG (antibody, V domains shown, IgG1-TM (L234F, L235E, P331S), human lambda light chain) VH: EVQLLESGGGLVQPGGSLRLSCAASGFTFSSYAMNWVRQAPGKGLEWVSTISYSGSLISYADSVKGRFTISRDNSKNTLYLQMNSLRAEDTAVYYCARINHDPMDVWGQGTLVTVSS VL: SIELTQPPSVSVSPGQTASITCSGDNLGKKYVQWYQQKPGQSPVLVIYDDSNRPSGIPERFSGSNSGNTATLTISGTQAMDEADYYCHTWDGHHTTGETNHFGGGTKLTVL
Reply text: 16.9

Inquiry: Entry PaB670128 IgG (antibody, V domains shown, IgG1-TM (L234F, L235E, P331S), human lambda light chain; also called ZZ1RUE-A01) VH: EVQLLESGGGLVQPGGSLRLSCAASGFTFSSYAMNWVRQAPGKGLEWVSTISYHGHHISYADSHHHRFTISRDNSKNTLYLQMNSLRAEDTAVYYCARIHHDPMDVWGQGTLVTVSS VL: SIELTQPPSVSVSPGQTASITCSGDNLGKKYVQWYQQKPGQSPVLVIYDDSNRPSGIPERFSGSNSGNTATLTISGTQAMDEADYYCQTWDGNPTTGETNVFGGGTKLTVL please
Reply text: 32.8

Inquiry: Follow-up item: PaB670152 IgG (antibody, V domains shown, IgG1-TM (L234F, L235E, P331S), human lambda light chain) VH: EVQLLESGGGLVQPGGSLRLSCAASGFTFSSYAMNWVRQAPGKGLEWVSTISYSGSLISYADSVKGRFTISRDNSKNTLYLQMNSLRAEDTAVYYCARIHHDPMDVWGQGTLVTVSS VL: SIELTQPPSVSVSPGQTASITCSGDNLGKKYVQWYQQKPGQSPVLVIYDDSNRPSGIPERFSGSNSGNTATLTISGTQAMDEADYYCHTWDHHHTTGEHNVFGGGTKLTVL
Reply text: 439

Inquiry: How about PaB670045 IgG (antibody, V domains shown, IgG1-TM (L234F, L235E, P331S), human lambda light chain; also called ZZ1KX3-F01) VH: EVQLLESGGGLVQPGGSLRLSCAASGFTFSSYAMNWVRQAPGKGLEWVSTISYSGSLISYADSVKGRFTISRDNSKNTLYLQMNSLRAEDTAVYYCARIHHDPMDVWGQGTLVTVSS VL: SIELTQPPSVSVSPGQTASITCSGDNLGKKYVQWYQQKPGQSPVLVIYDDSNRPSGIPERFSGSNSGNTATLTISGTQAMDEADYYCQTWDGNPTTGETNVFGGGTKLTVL ?
Reply text: 2.9

Inquiry: Try the binder PaB670144 IgG (antibody, V domains shown, IgG1-TM (L234F, L235E, P331S), human lambda light chain) VH: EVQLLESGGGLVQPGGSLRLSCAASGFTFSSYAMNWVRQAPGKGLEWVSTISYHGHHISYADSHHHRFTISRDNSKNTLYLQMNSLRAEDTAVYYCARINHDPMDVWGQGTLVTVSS VL: SIELTQPPSVSVSPGQTASITCSGDNLGKKYVQWYQQKPGQSPVLVIYDDSNRPSGIPERFSGSNSGNTATLTISGTQAMDEADYYCQTWDGNPTHGETNVFGGGTKLTVL
Reply text: 29

Inquiry: What do you have for PaB670146 IgG (antibody, V domains shown, IgG1-TM (L234F, L235E, P331S), human lambda light chain) VH: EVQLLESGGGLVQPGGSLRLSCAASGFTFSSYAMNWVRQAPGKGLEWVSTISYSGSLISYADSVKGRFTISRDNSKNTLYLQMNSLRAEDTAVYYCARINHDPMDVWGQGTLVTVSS VL: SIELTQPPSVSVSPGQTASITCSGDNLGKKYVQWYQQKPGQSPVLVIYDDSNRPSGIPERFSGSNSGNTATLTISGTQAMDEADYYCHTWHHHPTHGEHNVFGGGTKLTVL ?
Reply text: 91.9

Inquiry: Same lookup for PaB670142 IgG (antibody, V domains shown, IgG1-TM (L234F, L235E, P331S), human lambda light chain) VH: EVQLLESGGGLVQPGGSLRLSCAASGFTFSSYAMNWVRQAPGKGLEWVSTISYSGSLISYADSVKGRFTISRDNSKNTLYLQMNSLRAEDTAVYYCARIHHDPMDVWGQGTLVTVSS VL: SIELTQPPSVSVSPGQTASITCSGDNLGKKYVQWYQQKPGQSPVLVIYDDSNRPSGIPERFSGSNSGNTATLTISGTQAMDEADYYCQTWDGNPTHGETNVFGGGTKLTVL , please.
Reply text: 4.8
